# growth per entry
tested on: MDA-MB-435 melanoma; experiment: NCI-60 one-dose screen, 48 h (100 = growth as untreated, 0 = no growth, -100 = all killed); details: 10 µM unless noted
This is part of a sample that, as a whole, favours compounds with a hit. Of some 83,000 tested, about 20% had one in any assay.
Give the value, in units of %, as a plain number.

Inquiry: Query (compound): `Cc1cc(Nc2ccc(F)cc2)nc(N2CCN(c3ccnc4cc(Cl)ccc34)CC2)n1` ; field requested: growth
Reply text: 13.2

Inquiry: Query (compound): `Oc1cccc2ccc(N/N=C/c3cc(CN4CCCCC4)c(O)c4ncccc34)nc12` ; field requested: growth
Reply text: 20.2

Inquiry: Query (compound): `CC(=O)Nc1cc(F)cc(C(F)(F)F)c1Cl` ; field requested: growth
Reply text: 99.3

* * *

test system: BT-549 breast; test: NCI-60 one-dose screen, 48 h; settings: 10 µM unless noted
This is part of a sample that, as a whole, favours compounds with a hit. Of some 83,000 tested, about 20% had one in any assay. The source made the active and inactive calls. Rule for the calls: active = growth percent below 10; inactive = the rest.
Hi! Could you answer with just one of these? T = active, F = inactive

Some solved cases for reference:
>  <Compound>
CCCCCC1CCCCN1C(=O)OCC (centres undefined)

>  <Category Label>
F

$$$$
>  <Compound>
COc1ccc2c(c1)c1nc3cc(C)c(C)cc3nc1n2CCN(C)C

>  <Category Label>
F

$$$$

Inquiry: # lookup: test call for `COc1ccc(C2(Cl)c3ccccc3N(c3ccccc3)c3ccccc32)cc1`
Reply text: F

Inquiry: # lookup: test call for `C=C(C)[C@@H]1CC[C@]2(C(=O)N3CCCNCC3)CC[C@]3(C)[C@H](CC[C@@H]4[C@@]5(C)CCC(=O)C(C)(C)[C@@H]5CC[C@]43C)[C@@H]12`
Reply text: F

Inquiry: # lookup: test call for `O=C(CI)Nc1ccc(O)c2ccccc12`
Reply text: F

Inquiry: # lookup: test call for Nc1nc(Br)nc2c1ncn2C1CC(O)C(CO)O1 (centres undefined)
Reply text: F

Inquiry: # lookup: test call for `COc1ccc(C(=O)c2cc(OC)c(OC)c(OC)c2)cc1/C=C/C(=O)c1cc(OC)c(OC)c(OC)c1`
Reply text: F

* * *

test system: ACHN renal; assay: NCI-60 one-dose screen, 48 h; conditions: 10 µM unless noted
About 83,000 compounds went through this panel and 20% of them were active in at least one assay; those are over-represented in the sample as a whole. Calls of active or inactive are those of the source. How the source made its calls: active means growth percent below 10; inactive means the rest.
Hi! Could you answer with just one of these? true (active), false (inactive)

Some solved cases for reference:
>  <Compound>
COc1ccc(C2=NN(c3nc(-c4ccc(OC)cc4)c(C#N)c(=O)n3C)C(=O)CC2)cc1

>  <Category Label>
false

$$$$
>  <Compound>
Cc1nn(-c2ccc(Br)cc2)c2nc3[nH]c(=O)[nH]c(=O)c3nc12

>  <Category Label>
false

$$$$
>  <Compound>
Cc1cccc(C)c1NCc1nc(-c2ccccc2)n[nH]1

>  <Category Label>
false

$$$$
>  <Compound>
Nc1c2c(nc3ccc(Cl)cc13)CC(c1ccc(O)cc1)CC2=O (centres undefined)

>  <Category Label>
false

$$$$
>  <Compound>
COC(=O)[C@]12CC[C@@H](C)[C@H](C)[C@@H]1C1=CC[C@@H]3[C@@]4(C)C[C@@H](O)OC[C@](C)(C=O)C4C(=O)C[C@@]3(C)[C@]1(C)CC2 (some centres undefined)

>  <Category Label>
true

$$$$
>  <Compound>
COc1cc(OC)c2c(c1)c1nc3cc(C)c(C)cc3nc1n2CCN(C)C

>  <Category Label>
false

$$$$

Inquiry: # lookup: test call for `Nc1c(C(=O)Nc2c(Cl)cccc2Cl)sc2nc3c(cc12)C(=O)CCC3`
Reply text: false

Inquiry: # lookup: test call for `COc1cc(-c2cc(-c3nc4ccccc4[nH]3)[nH]n2)cc(OC)c1OC`
Reply text: false

Inquiry: # lookup: test call for COc1ccc(C2CC(=O)c3c(nc4ccc(Cl)cc4c3N)C2)cc1 (centres undefined)
Reply text: false
